Recorded IC50 for the following molecules
target: HDAC4 (Homo sapiens); test: HDAC enzymatic assay, HDAC4; assay type: biochemical; settings: fluorogenic tetrapeptide RHKKAc substrate 10 μM; read-out: HDAC isoforms IC50 (nM), 4
Sequence (P56524 whole entry, canonical isoform): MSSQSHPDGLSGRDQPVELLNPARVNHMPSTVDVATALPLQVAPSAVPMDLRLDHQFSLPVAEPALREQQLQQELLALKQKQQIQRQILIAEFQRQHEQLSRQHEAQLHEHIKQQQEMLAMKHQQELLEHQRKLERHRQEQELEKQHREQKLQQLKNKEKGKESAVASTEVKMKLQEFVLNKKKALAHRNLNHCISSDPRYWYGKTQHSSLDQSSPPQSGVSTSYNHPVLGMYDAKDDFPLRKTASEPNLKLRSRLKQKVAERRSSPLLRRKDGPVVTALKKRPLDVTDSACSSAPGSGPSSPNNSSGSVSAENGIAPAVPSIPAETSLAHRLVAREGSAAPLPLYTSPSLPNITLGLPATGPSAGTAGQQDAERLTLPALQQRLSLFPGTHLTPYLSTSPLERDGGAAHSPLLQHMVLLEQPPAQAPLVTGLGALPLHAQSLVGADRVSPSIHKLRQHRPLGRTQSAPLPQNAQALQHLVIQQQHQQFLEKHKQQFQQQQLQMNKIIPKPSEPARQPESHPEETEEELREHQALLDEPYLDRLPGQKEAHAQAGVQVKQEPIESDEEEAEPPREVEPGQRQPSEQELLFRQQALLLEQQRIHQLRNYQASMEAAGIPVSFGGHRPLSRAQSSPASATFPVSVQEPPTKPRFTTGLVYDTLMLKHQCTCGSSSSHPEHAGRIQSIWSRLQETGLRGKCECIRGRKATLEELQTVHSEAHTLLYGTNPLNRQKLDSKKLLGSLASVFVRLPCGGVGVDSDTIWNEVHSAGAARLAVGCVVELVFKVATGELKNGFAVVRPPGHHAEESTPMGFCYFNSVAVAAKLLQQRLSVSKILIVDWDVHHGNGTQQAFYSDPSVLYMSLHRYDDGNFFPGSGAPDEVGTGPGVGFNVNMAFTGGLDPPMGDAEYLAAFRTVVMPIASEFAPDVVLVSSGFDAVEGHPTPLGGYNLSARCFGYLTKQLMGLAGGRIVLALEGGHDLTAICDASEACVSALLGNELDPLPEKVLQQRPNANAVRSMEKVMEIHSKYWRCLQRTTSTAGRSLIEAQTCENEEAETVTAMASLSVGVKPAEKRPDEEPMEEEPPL
measuredAttribute: IC50

# molecule, assayValue
rows = [
    ("O=C1CCC[C@@H](C(=O)N[C@@H](CCCCCS)C(=O)N2CCc3ccccc3C2)N1 [Example 32]", "< 50 nM"),
    ("O=C1NC[C@H](c2ccccc2)[C@H]1C(=O)N[C@@H](CCCCCS)C(=O)Nc1ccccc1 [Example 30]", "< 50 nM"),
    ("O=C1NCCC[C@@H]1C(=O)N[C@@H](CCCCCS)C(=O)Nc1ccccc1 [Example 36]", "< 50 nM"),
    ("O=C1NC[C@@H](c2ccccc2)[C@@H]1C(=O)N[C@@H](CCCCCS)C(=O)Nc1ccccc1 [Example 31]", "< 50 nM"),
    ("Cc1ccc(NC(=O)[C@H](CCCCCS)NC(=O)[C@@H]2CCCC(=O)N2)cc1 [Example 39]", "100 to 500 nM"),
    ("Cc1cccc(NC(=O)[C@H](CCCCCS)NC(=O)[C@@H]2CCCC(=O)N2)c1 [Example 38]", "100 to 500 nM"),
    ("O=C1NCCC[C@H]1C(=O)N[C@@H](CCCCCS)C(=O)Nc1ccccc1 [Example 35]", "< 50 nM"),
    ("O=C1CCC[C@@H](C(=O)N[C@@H](CCCCCS)C(=O)NC2CCCC2)N1 [Example 24]", "< 50 nM"),
    ("O=C1C[C@@H](C(=O)N[C@@H](CCCCCS)C(=O)Nc2ccccc2)N1 [Example 27]", "100 to 500 nM"),
    ("O=C1CCC[C@@H](C(=O)N[C@@H](CCCCCS)C(=O)NCc2ccc(C(F)(F)F)cc2)N1 [Example 26]", "< 50 nM"),
    ("O=C1CCC[C@@H](C(=O)N[C@@H](CCCCCS)C(=O)Nc2ccccc2)N1 [Example 23]", "< 50 nM"),
    ("O=C1NC[C@H](c2ccccc2)[C@@H]1C(=O)N[C@@H](CCCCCS)C(=O)Nc1ccccc1 [Example 28]", "< 50 nM"),
    ("O=C1CC[C@H](C(=O)N[C@@H](CCCCCS)C(=O)Nc2ccccc2)N1 [Example 33]", "50 to 100 nM"),
    ("O=C1CCC[C@H](C(=O)N[C@@H](CCCCCS)C(=O)Nc2ccccc2)N1 [Example 37]", "< 50 nM"),
    ("CN1C(=O)CCC[C@H]1C(=O)N[C@@H](CCCCCS)C(=O)Nc1ccccc1 [Example 40]", "100 to 500 nM"),
    ("Cc1cccc(CCNC(=O)[C@H](CCCCCS)NC(=O)[C@@H]2CCCC(=O)N2)c1 [Example 34]", "< 50 nM"),
    ("O=C1NC[C@@H](c2ccccc2)[C@H]1C(=O)N[C@@H](CCCCCS)C(=O)Nc1ccccc1 [Example 29]", "< 50 nM"),
    ("O=C1CCC[C@@H](C(=O)N[C@@H](CCCCCS)C(=O)NCc2cccc(OCc3ccccc3)c2)N1 [Example 25]", "100 to 500 nM"),
]

----------
Target: HDAC7 (Homo sapiens, UniProt Q8WUI4)
Sequence (Q8WUI4 1-952): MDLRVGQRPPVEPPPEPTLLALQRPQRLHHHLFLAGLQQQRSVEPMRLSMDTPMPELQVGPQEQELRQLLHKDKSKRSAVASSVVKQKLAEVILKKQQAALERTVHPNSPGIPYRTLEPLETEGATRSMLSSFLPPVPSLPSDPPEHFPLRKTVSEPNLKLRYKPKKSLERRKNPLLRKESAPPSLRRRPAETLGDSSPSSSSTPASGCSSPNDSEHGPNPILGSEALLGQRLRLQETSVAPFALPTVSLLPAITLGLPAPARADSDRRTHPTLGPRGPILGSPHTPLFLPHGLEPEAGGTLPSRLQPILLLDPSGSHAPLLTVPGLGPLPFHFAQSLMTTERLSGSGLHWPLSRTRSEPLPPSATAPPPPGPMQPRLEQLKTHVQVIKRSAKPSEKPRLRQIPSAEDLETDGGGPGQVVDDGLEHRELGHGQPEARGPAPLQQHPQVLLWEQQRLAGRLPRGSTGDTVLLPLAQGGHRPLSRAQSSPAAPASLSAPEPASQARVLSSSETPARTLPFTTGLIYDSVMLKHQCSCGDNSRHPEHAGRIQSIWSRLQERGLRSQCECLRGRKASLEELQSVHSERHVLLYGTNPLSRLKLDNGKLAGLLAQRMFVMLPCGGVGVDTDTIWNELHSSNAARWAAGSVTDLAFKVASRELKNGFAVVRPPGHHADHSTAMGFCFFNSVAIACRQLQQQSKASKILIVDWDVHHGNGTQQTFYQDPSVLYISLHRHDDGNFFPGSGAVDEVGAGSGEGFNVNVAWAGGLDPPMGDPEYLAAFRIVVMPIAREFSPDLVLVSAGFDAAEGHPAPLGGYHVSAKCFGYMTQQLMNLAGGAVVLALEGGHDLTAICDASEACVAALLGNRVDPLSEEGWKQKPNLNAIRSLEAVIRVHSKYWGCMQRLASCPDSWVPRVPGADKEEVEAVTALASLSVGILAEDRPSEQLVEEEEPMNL
Assay: HDAC enzymatic assay, HDAC7
Format: biochemical
Details: fluorogenic tetrapeptide RHKKAc substrate 10 μM; read-out: HDAC isoforms IC50 (nM), 7
Recorded IC50 for the following molecules
measuredAttribute: IC50

# smi, measuredAttribute, assayValue
measured = [
    ("Cc1cccc(CCNC(=O)[C@H](CCCCCS)NC(=O)[C@@H]2CCCC(=O)N2)c1", "IC50", "100 to 500 nM"),
    ("O=C1NC[C@H](c2ccccc2)[C@@H]1C(=O)N[C@@H](CCCCCS)C(=O)Nc1ccccc1", "IC50", "100 to 500 nM"),
    ("CN1C(=O)CCC[C@H]1C(=O)N[C@@H](CCCCCS)C(=O)Nc1ccccc1", "IC50", "< 50 nM"),
    ("O=C1NC[C@H](c2ccccc2)[C@H]1C(=O)N[C@@H](CCCCCS)C(=O)Nc1ccccc1", "IC50", "100 to 500 nM"),
    ("O=C1CCC[C@@H](C(=O)N[C@@H](CCCCCS)C(=O)NCc2cccc(OCc3ccccc3)c2)N1", "IC50", "100 to 500 nM"),
    ("O=C1CCC[C@@H](C(=O)N[C@@H](CCCCCS)C(=O)Nc2ccccc2)N1", "IC50", "< 50 nM"),
    ("O=C1C[C@@H](C(=O)N[C@@H](CCCCCS)C(=O)Nc2ccccc2)N1", "IC50", "< 50 nM"),
    ("O=C1CC[C@H](C(=O)N[C@@H](CCCCCS)C(=O)Nc2ccccc2)N1", "IC50", "< 50 nM"),
]
